The following binders are shown together with reported koff values.
Target: T1, human PD-1 extracellular domain (human, UniProt Q15116 25-170)
T1 construct: extracellular domain; Soluble analyte in the bio-layer interferometry assay; also called recombinant human PD-1 extracellular domain protein
T1 sequence (Q15116 25-170): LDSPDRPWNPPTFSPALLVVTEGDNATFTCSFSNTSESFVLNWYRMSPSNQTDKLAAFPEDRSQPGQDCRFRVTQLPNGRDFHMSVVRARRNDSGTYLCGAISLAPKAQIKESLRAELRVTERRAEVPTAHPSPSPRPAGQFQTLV
Test: bio-layer interferometry (Octet Red 96), antibody on anti-human Fc biosensor, PD-1 ECD in solution, 1:1 global fit, 30 C
Kindly provide the numeric value in s⁻¹ only, without the unit symbol.

Study these solved cases before continuing.
• AB5HU (antibody, human IgG1, kappa, V domains shown, Humanized, human gamma-1 / kappa constant domains as in the full-length entries; also called humanized form of antibody AB5; ABSHU [sic]) VH: EVQLLESGGGLVQPGGSLRLSCAASGFTFSSSHWICWVRQAPGKGLEWIACIYTGSIDVFYYASWAKGRFTISRDNSKNTLYLQMNSLRAEDTAVYYCARAANTDTTYFNLWGQGTLVTVSS VL: AYDMTQSPSSLSASVGDRVTINCQASQSINNQLSWYQQKPGKVPKLLIYGASTLASGVPSRFTGSGSGTDFTLTISSLQPEDVATYYCHVHYCSGGSCFWAFGGGTKVEIKR = 0.0004
• AB2 (antibody, human IgG1, kappa, V domains shown, Rabbit variable domains on human IgG1 / human kappa constant domains; also called AB2 chimeric) VH: QEQLVESGGGLVQPEGSLTLTCTASGFSFSSYWMCWVRQAPGKGLEWIGCITTGSGSTYYASWAKRRFTISKTSSTTVTLQMTSLTAADTATYFCTRAFDLWGPGTLVTVSS VL: DVVMTQTPASVSAVVGGTVTIKCQASQSIYSYLNWYQQKPGQPPKLLIYGASNLASGVSSRFKGSGSGTEFTLTISDLECADAATYYCQCSWLSGAVGNAFGGGTEVVVKR = 0.0057

Lookup: Data request, read-out koff, for AB4HU (antibody, human IgG1, kappa, V domains shown, Humanized, human gamma-1 / kappa constant domains as in the full-length entries; also called humanized form of antibody AB4) VH: EVQLVESGGGLVQPGGSLRLSCTASGFSLSSYAMSWVRQAPGKGLEYIGYIGDTTGIAYASWANGRFTISKDNTKNTVDLQMNSLRAEDTAVYYCARGWSYLDIWGQGTLVTVSS VL: ALVMTQSPSSLSASVGDRVTITCQASQNIYSNLAWYQQKPGKVPKLLIYQASTLASGVPSRFSGSGYGTDFTLTISSLQPEDVATYYCQGGYYSAALNTFGGGTKVEIKR
Found: 0.00038
